These measurements were taken from patent US8791144B2.

target_or_system: hα7-wt nAChR (Homo sapiens)
assay_name: Ca2+ flux imaging (FDSS): potentiation of the choline response
Type: cell-based
condition: Ca2+ assay as described in D.1; potentiation of choline response, hα7-wt nAChR; read-out: Potency (pEC50) (converted)
Procedure: […] PAM activity was detected in real time by applying the compounds to be tested to the loaded cells along with a α7 nicotinic receptor agonist during constant monitoring of cellular fluorescence in a FDSS. […] A control response to choline was calculated on each plate from the difference in peak in fluorescence in wells receiving either choline or assay buffer alone. […]
test_readout: EC50 (nM)

• Cc1cc(-n2nc(Nc3ccc(F)c(F)c3)cc2CC(=O)NCC2CC2)ccn1 = 692
• CCNC(=O)Cc1cc(Nc2cccc(OC(F)(F)F)c2)nn1-c1cc(C)nc(C)c1 = 309
• Cc1cc(-n2nc(Nc3cccc(OC(F)(F)F)c3)cc2CC(=O)NCC2CC2)ccn1 = 324
• CCNC(=O)Cc1cc(Nc2cc(Cl)cc(OC)c2)nn1-c1ccnc(C)c1 = 776

###

test_readout: melting point (°C)

* CNC(=O)Cc1cc(Nc2cccc(Cl)c2F)nn1-c1ccnc(C)c1 [Compound 71] | 229.7
* Cc1cc(-n2nc(Nc3cccc(OC(F)(F)F)c3)cc2CC#N)ccn1 [Compound 107] | 180.2
* CC[C@H](O)Cc1cc(Nc2ccc(F)c(F)c2F)nn1-c1ccnc(C)c1 [Compound 18] | 149.1
* Cc1cc(-n2nc(Nc3ccc4c(c3)OC(F)(F)O4)cc2CCCO)ccn1 [Compound 92] | 163.3

###

Rule: melting point of 200 °C or more gives label 1; anything lower gives label 0.

• CCNC(=O)Cc1cc(Nc2cccc(OC(F)(F)F)c2)nn1-c1ccnc(C)c1 = label 1
• COc1cc(Nc2cc(CC(=O)NCC3CC3)n(-c3ccnc(C)c3)n2)cc(C(F)(F)F)c1 = label 1
• Cc1cc(-n2nc(Nc3ccc(F)c(F)c3)cc2CC(=O)NCC2CC2)ccn1 = label 1
• Cc1cc(-n2nc(Nc3cccc(Cl)c3F)cc2CC(=O)NC2CC2)ccn1 = label 0
• CC[C@H](O)Cc1cc(Nc2cccc(C(F)(F)F)c2)nn1-c1ccnc(C)c1 = label 0

###

target_or_system: hα7-wt nAChR (Homo sapiens, UniProt P36544)
Sequence (P36544 23-502): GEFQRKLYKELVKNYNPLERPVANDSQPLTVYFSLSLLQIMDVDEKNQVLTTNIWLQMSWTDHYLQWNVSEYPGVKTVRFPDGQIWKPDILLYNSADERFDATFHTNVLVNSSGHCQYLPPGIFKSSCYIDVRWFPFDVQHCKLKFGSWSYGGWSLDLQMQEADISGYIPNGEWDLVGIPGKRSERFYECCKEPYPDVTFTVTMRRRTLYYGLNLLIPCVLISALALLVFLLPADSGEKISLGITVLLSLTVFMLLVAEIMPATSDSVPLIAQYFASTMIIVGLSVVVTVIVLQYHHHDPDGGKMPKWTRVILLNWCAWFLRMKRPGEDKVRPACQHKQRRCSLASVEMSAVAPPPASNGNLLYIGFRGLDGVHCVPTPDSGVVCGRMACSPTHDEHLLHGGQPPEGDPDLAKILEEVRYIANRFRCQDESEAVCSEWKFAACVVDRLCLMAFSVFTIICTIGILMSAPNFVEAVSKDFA
assay_name: Ca2+ flux imaging (FDSS): potentiation of the choline response
Format: cell-based
condition: Ca2+ assay as described in D.1; potentiation of choline response, hα7-wt nAChR; read-out: Potency (pEC50) (converted)
Quick reference: EC50 of the listed items.
test_readout: EC50 (nM)

• Cc1cc(-n2nc(Nc3ccc4c(c3)OC(F)(F)O4)cc2CC(=O)NC2CCC2)ccn1 [Compound 102] = 240
• Cc1cc(-n2nc(Nc3cccc(OC(F)(F)F)c3)cc2CC(=O)NC2CC2)ccn1 [Compound 117] = 1200
• Cc1cc(-n2nc(Nc3cccc(OC(F)(F)F)c3)cc2CC(=O)NC(C)C)cc(C)n1 [Compound 116] = 245
• CC[C@@H](O)Cc1cc(Nc2cccc(C(F)(F)F)c2)nn1-c1ccnc(C)c1 [Compound 35] = 692
• Cc1cc(-n2nc(Nc3ccc(F)c(F)c3)cc2CO)ccn1 [Compound 15] = 2820
• COc1cc(Nc2cc(CC(=O)NCC3CC3)n(-c3ccnc(C)c3)n2)cc(C(F)(F)F)c1 [Compound 5] = 75.9
• Cc1cc(-n2nc(Nc3cccc(C(F)(F)F)c3)cc2CC#N)ccn1 [Compound 40] = 4370
• Cc1cc(-n2nc(Nc3ccc4c(c3)OC(F)(F)O4)cc2CCCOCc2ccccc2)ccn1 [Compound 104] = 562
• CC[C@H](O)Cc1cc(Nc2cccc(Cl)c2)nn1-c1ccnc(C)c1 [Compound 57] = 2240
• COCc1cc(Nc2ccc(F)c(F)c2)nn1-c1ccnc(C)c1 [Compound 22] = 1910
• CCNC(=O)Cc1cc(Nc2cccc(Cl)c2F)nn1-c1ccnc(C)c1 [Compound 73] = 1260
• CCNC(=O)Cc1cc(Nc2cccc(C(F)(F)F)c2)nn1-c1ccnc(C)c1 [Compound 44] = 603
